Sourced from PubChem BioAssay

The following compounds are shown together with reported activation values.
Tested on: DAF-12 nuclear receptor (Heterodera glycines), GAL4-LBD fusion
test-name: H. glycines DAF-12 receptor agonists, confirmation, cell-based, luminescence, HEK293, GAL4-LBD fusion (AID 743050);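 note: 0% = DMSO low control and 100% = 2 mM sodium butyrate high control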
test-context: HEK293 GAL4-hgDAF12 luciferase reporter, agonist mode; at 6.8 µM; stronger effect = higher value; percent of butyrate response
This is one part of the list. The source made the active and inactive calls.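 Rule for the calls: active = mean activation over triplicate wells above the hit cutoff derived from the earlier primary screen (cut at about 11% in these data); inactive = the rest.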

compound | activation
COc1cccc(/C=C/C(=O)Nc2ccc3c(c2)OCCO3)c1 | 12.4% (active)
CC(C)c1cc(C(N)=O)c(NC(=O)c2cccc(COc3ccc(Br)cc3)c2)s1 | 14% (active)
N/C(=N\OC(=O)CCC1CCCCC1)c1ccccn1 | 12.3% (active)
O=C(NCCOc1ccccc1)c1ccccc1 | 13.3% (active)
Cc1ccc(-n2cc3ccc([N+](=O)[O-])cc3n2)cc1 | 22.6% (active)
Brc1ccc2nc(N3CCCC3)sc2c1 | 12.5% (active)
CCCOc1ccc(C(=O)NCCc2ccccc2)cc1 | 14.1% (active)
COc1ccc(-c2cn3cccnc3n2)cc1 | 9.37% (inactive)
COc1cc(/C=N/Nc2nc3ccccc3s2)ccc1O | 18.2% (active)
O=C(Nc1ccc(C2CC2(Cl)Cl)cc1)c1cccc([N+](=O)[O-])c1 (configuration not stated) | 15.2% (active)
CN(C)S(=O)(=O)c1ccc2oc(SCC(=O)Nc3ccccc3F)nc2c1 | 15.5% (active)
Cn1c(-c2ccc(C(=O)c3ccccc3)s2)nc2ccccc21 | 17.6% (active)
